Hey, just so you know, these numbers are from paper PMC3848981.

# Measurement Target: TRAF4 (Homo sapiens)
# Sequence (Q9BUZ4 283-470): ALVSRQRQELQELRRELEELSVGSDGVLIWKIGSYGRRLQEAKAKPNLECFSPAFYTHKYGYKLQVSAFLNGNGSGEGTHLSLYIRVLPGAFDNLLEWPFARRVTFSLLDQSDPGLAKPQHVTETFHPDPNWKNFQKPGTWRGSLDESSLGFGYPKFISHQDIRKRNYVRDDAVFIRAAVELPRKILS
pKd: −log10 of the molar value.
Assay Readout: pKd

[[record]]
compound = "O=P(O)(O)O[C@H]1[C@H](O)[C@@H](OP(=O)(O)O)[C@H](OP(=O)(O)O)[C@@H](OP(=O)(O)O)[C@H]1O [IP4, inositol-(1,3,4,5)-tetrakisphosphate]"
assay_readout = "pKd"
value_observed = 5.25

